measured target: SARS-CoV-2 3CLpro (Severe acute respiratory syndrome coronavirus 2, UniProt P0DTD1)
protocol summary: biochemical
Format: biochemical
test parameters: 4 h, sheet LOPAC_screen_w_protease; primary screen of LOPAC1280 at 5 µM with protease; replicate 1; read-out: Replicate_1
Structures can show the parent of a compound that is named as a salt.
observation type: inhibition at 5 µM (%)
Entry rule: numbers only, all in %.

Solved entries:
compound | measured target | inhibition at 5 µM (%)
O=C(O)c1cc(O)c2ccc(Cl)cc2n1 [7-Chlorokynurenic acid] | SARS-CoV-2 3CLpro (Severe acute respiratory syndrome coronavirus 2, UniProt P0DTD1) | 3.97
O=C(CCNNC(=O)c1ccncc1)NCc1ccccc1 [Nialamide] | SARS-CoV-2 3CLpro (Severe acute respiratory syndrome coronavirus 2, UniProt P0DTD1) | 4.27

Now look at this entry.
The recorded inhibition at 5 µM for CC(CCc1ccccc1)NC(C)C(O)c1ccc(O)cc1 (stereo not drawn) [Nylidrin hydrochloride] is 4.88

* * *

// values below are reported Ratio (A/B)
measured target: SARS-CoV-2 3CLpro (Severe acute respiratory syndrome coronavirus 2, UniProt P0DTD1)
protocol summary: biochemical
Assay type: biochemical
Please state the value as a number alone, without comment.

Below: 6 molecules and their reported Ratio (A/B).
molecule | observed result
N[C@@H](CCC(=O)N[C@@H](CSN=O)C(=O)NCC(=O)O)C(=O)O [S-Nitrosoglutathione, reference compound] | 1.5
Oc1ccccc1O [Pyrocatechol, reference compound] | 1.0
N=C1Sc2ccccc2C2=NCCCN12 [PD 404,182, reference compound] | 1.4
N.S=C(S)N1CCCC1 | 0.8
N=c1c[n+](N2CCOCC2)[n-]o1 | 1.1
Oc1cc2c(cc1O)[C@H]1c3ccccc3CN[C@@H]1CC2 (racemic) [Dihydrexidine] | 1.1

Lab book: Ratio (A/B) of `CC(=O)NCCc1ccc(O)c(O)c1` noted as 1.8

* * *

measured target: SARS-CoV-2 3CLpro (Severe acute respiratory syndrome coronavirus 2)
protocol summary: biochemical
Format: biochemical
test parameters: 4 h, sheet LOPAC_screen_w_protease; primary screen at 5 µM; replicate 2; read-out: Replicate_2 (LOPAC screen with protease)
Structures can show the parent of a compound that is named as a salt.
Assign classes using reported inhibition at 5 µM values and the ranges range A: < 10%; range B: ≥ 10% and < 50%; range C: ≥ 50%, please.

Field: example entries. Status: answers known.
compound | cat
N#CC(C#N)=Cc1cc(O)c(O)c(O)c1 | range A
O=C(N[C@@H](Cc1ccccc1)C(=O)CCl)OCc1ccccc1 | range C
CN(N=O)c1cc(O)ccc1O [Dephostatin, reference compound] | range B
NCCSSCCN [Cystamine dihydrochloride] | range B
Oc1ccc(Cn2cc[nH]c2=S)cc1 [1-(4-Hydroxybenzyl)imidazole-2-thiol] | range B
CCOC(=O)[C@]12CC1/C(=N\O)c1ccccc1O2 (mixture of isomers) [CPCCOEt, reference compound] | range C
Oc1cc(O)cc(/C=C/c2ccc(O)c(O)c2)c1 [Piceatannol, reference compound] | range C
N=C1Sc2ccccc2C2=NCCCN12 [PD 404,182, reference compound] | range C

[ask] Please let me know in which category the item C[N+](C)(C)CC#CCN1CCCC1=O [Oxotremorine methiodide] belongs.
[reply] range A

[ask] Using the reported inhibition at 5 µM, which band applies to N#C/C(=C\c1ccc(O)c(O)c1)C(N)=S [Tyrphostin 47, reference compound] ?
[reply] range B

[ask] Could you place N[C@@H](Cc1c[nH]c2ccc(O)cc12)C(=O)O [5-Hydroxy-L-tryptophan] in its proper category? Many thanks.
[reply] range B

[ask] Class (by measured inhibition at 5 µM) for NC[C@@H]1O[C@H](O[C@H]2[C@@H](O)[C@H](O[C@@H]3[C@@H](O)[C@H](N)C[C@H](N)[C@H]3O[C@H]3O[C@H](CO)[C@@H](O)[C@H](O)[C@H]3N)O[C@@H]2CO)[C@H](N)[C@@H](O)[C@@H]1O [Paromomycin sulfate]
[reply] range A

* * *

measured target: SARS-CoV-2 3CLpro (Severe acute respiratory syndrome coronavirus 2)
protocol summary: biochemical
Type: biochemical
test parameters: 4 h, sheet LOPAC_screen_w_protease; primary screen at 5 µM; replicate 1; read-out: Replicate_1 (LOPAC screen with protease)
Structures can show the parent of a compound that is named as a salt.
Quick rule: inhibition at 5 µM of at least 8% means rule met, below that means rule not met.

Example cases with answers are listed next.
molecule | cat
Oc1ccc(Cn2cc[nH]c2=S)cc1 [1-(4-Hydroxybenzyl)imidazole-2-thiol] | rule met
N#C/C(=C\c1ccc(O)c(O)c1)C(N)=S [Tyrphostin 47, reference compound] | rule met
CCOC(=O)[C@]12CC1/C(=N\O)c1ccccc1O2 (mixture of isomers) [CPCCOEt, reference compound] | rule not met
NCCSSCCN [Cystamine dihydrochloride] | rule met
O=C(/C=C/c1ccc(O)c(O)c1)OCCc1ccccc1 [Caffeic acid phenethyl ester, reference compound] | rule met

[ask] I'd appreciate it if you could say whether NC[C@@H]1O[C@H](O[C@H]2[C@@H](O)[C@H](O[C@@H]3[C@@H](O)[C@H](N)C[C@H](N)[C@H]3O[C@H]3O[C@H](CO)[C@@H](O)[C@H](O)[C@H]3N)O[C@@H]2CO)[C@H](N)[C@@H](O)[C@@H]1O [Paromomycin sulfate] has inhibition at 5 µM at least equal to 8%.
[reply] rule met

[ask] Is inhibition at 5 µM for CC[N+](CC)(CC)CCOc1cccc(OCC[N+](CC)(CC)CC)c1OCC[N+](CC)(CC)CC [Gallamine triethiodide] at or above 8%?
[reply] rule met

[ask] Given N=C1Sc2ccccc2C2=NCCCN12 [PD 404,182, reference compound] , state whether its inhibition at 5 µM is at least 8%.
[reply] rule met

[ask] hey, is inhibition at 5 µM for this one >= 8%? CCOC(=O)c1cnc2c(cnn2CC)c1NN=C(C)C [Etazolate hydrochloride]
[reply] rule not met

* * *

Reported mean (LOPAC_screen_w_protease) by item:
measured target: UniProt P0DTD1
protocol summary: biochemical
Format: biochemical
Parameters: unit not given here
test parameters: LOPAC1280 primary screen with protease, 5 µM compound, mean of two replicates
Counter-ions that a name gives are not always drawn.
Lab note: record just the number, no unit beside it.

Examples with their reported mean (LOPAC_screen_w_protease) follow.
compound | mean (LOPAC_screen_w_protease)
CC1CCCC=CC2CC(O)CC2C(O)C=CC(=O)O1 (stereo not shown) | 1.348
NC(CCCP(=O)(O)O)C(=O)O (racemic) [(±)-2-Amino-5-phosphonopentanoic acid] | 1.558
O=C(CCCN1CCC2(CC1)C(=O)NCN2c1ccccc1)c1ccc(F)cc1 [Spiperone hydrochloride] | 1.727
CCCn1c(C)c(C(=O)c2cccc3ccccc23)c2ccccc21 | 1.386
CC(C)NCC(O)c1ccc(NS(C)(=O)=O)cc1.Cl (racemic) [(±)-Sotalol hydrochloride] | 1.4398

The recorded mean (LOPAC_screen_w_protease) for CCN(CC)CCNC(=O)c1ccc(NC(C)=O)cc1.Cl [N-Acetylprocainamide hydrochloride] is 1.374

mean (LOPAC_screen_w_protease) reading for CC1=C(C(=O)O)N2C(=O)[C@@H](NC(=O)[C@H](N)c3ccccc3)[C@H]2SC1.O [Cephalexin hydrate] : 1.619

Field mean (LOPAC_screen_w_protease) (entry `OC[C@H]1NC[C@@H](O)[C@@H]1O` ) reads 1.627

Sure, the documented mean (LOPAC_screen_w_protease) for O=C(O)[C@H]1CCCN[C@H]1C(=O)O (racemic) [(±)-cis-Piperidine-2,3-dicarboxylic acid] is 1.527

Lookup result for CC(C)[N+]1(C)[C@@H]2CC[C@H]1C[C@@H](OC(=O)C(CO)c1ccccc1)C2 (stereo partly shown) [Ipratropium bromide] ; measured mean (LOPAC_screen_w_protease): 1.504

* * *

measured target: SARS-CoV-2 3CLpro (Severe acute respiratory syndrome coronavirus 2, UniProt P0DTD1)
protocol summary: biochemical
Format: biochemical
Parameters: unit not given here
test parameters: LOPAC1280 primary screen with protease, 5 µM compound, mean of the two replicates
Where a name gives a salt, the structure may show the parent alone.
mean (LOPAC_screen_w_protease) for assorted molecules
I only need the number, thanks.

molecule | mean (LOPAC_screen_w_protease)
CCn1c(=O)[nH]c2cc(Cl)c(Cl)cc21 | 1.96
CC(C)C[C@H](NC(=O)[C@H](O)[C@H](N)Cc1ccccc1)C(=O)O [Epibestatin hydrochloride] | 2.008
N=C(N)NC(CCC(=O)O)C(=O)O (stereo not shown) | 1.992
COc1cc2c(cc1OC)-c1c/c(=N\c3c(C)cc(C)cc3C)n(C)c(=O)n1CC2 [Trequinsin hydrochloride] | 1.986
CC[N+](C)(CC)CC(=O)Nc1c(C)cccc1C.[Cl-] [Lidocaine N-methyl hydrochloride] | 2.035
CCn1nc(C(=O)O)c(=O)c2cc3c(cc21)OCO3 | 2.037

In the following, a different molecule is considered.
According to the records, this molecule `CC(C)Cn1c(=O)n(C)c(=O)c2[nH]cnc21` displays mean (LOPAC_screen_w_protease) of 2.03
